experiment: yeast display, Sf9 membrane polyspecificity reagent, FACS + sequencing; frameworks hold sequencing errors
property.measured: polyreactivity (PSR sort gate)

- QVQLVESGGGLVQAGGSLRLSCAASGRTFQGKAMGWYRQAPGKERELVAAISSSGGRTYYADSVKGRFTISRDNAKNTVYLQMNSLKPVDTSVYYCAARNYFWGQGTQVTVSS: low polyreactivity
- QVQLQESGGGLVQAGGSLRLSCAASGTIFDKDDMGWYRQAPGKEREFVAGIDRGGTTNCAGSVKGRFTISRDNAKNTVYLQMISLKPEDTEVYYCAAYYPDIYPFIYRGQGTQVTVSS: high polyreactivity
- QVQHVESGGGLVQAGASLRLSCAASGLTFYRYALGWYRQARGNERELVAAITSGTRTYYADSVKGRFTISRDNAKNTVYLQMYSLKPEDTAVYYCAASWQTRTYQSRYYYWGQGTQVTVSS: high polyreactivity
- QVQLVESGGGLVQAGGSLRLSCAASGLTFQHYAMGWYRQAPGKERELVASISYSGGGTYADSVKGRFTISRDNAKNTVYLQMNSQKPEDTAVYYCATSLQRQFDYWGQGTQVTVSS: low polyreactivity
- QVQLVESGGGLVQAGGSLRLSCAATGIIFYRNAMGWYRQAPGKERELVASISKRGGSTYYADSVKGRFTISRDNAKNTVYLQMNSLKPEDNAVYYCNTRGGIARQFEIYSWGQGTQVTLSS: high polyreactivity
- QVQLVESGGGLVQAGGSLRLSCAASGGTFPYYAMGWYRQAPGKERELVAAITWDGGSTYYADSVKGRFTISRDNAKNTVYLQMNSLKPDATAVYYCNVRYYRYISRYDYWVQGTQVTVSS: high polyreactivity
- QVQLVESGGGLVQAGGSLRLSCAASGSTFYLNAMGWYRQAPGKERELVAAITVSGGSTYYADSVKGRFTISRDNAKNTVYLQMNSLKPEDTAVYYCARELLSPTYQRWYYYWGQGTQVTVSS: low polyreactivity
- QVQLVETGGGLVQAGGSLRLSCAASGSIFIYYAMGWYRQAPGKERELVAAIRLSSGSTYYADSVKGRFTISRDNSKNTVYLQMIRLKPEYTAVYYCAARRKRPFSVYDHWGKGTQVTVSS: high polyreactivity
- QVQLVESGGGLVQAGGSLRLSCAASGNTFSSYAMGWYRQAPGKVRELVAAISRRGGSTYYADSVKRRFTISRDHAKTTVYLQMNSLKPEDTAVYYCAADGTGFRSLRYDYWGQGTQVTVSS: high polyreactivity
- QVQLVESGGGLVQAGGSLRLSCAASGFTFSSYAMGWSRQAPGKERELVAAISTRGGSTYYADSVKGRFTISRDNAKNTVYLQMNSLKPEDTAVYYCATGGRGGRRYEYWGQGTQVTVSS: low polyreactivity
- QVQLVESGGGLVQAGCSLRLSCAASGRIFLVNAMGWYRQAPGKERELVAAISYRSGRTYYADSVKGRFTISRDNAKNTVYLQMNSLKPEDTAVYYCAAYTNVADMEYWGQGTQVTVSS: high polyreactivity
- QVQLVESGGGLVQAGGSLRLSCAASGFTFYRYAMGWYRQAPGKERELVAAITSAGSTYYADSVKGRFTISRDNAKNTVYLQMNSLKPEDTAVSYCNAVGYFSYRDRDSEYYYNYGSWGQGTQVTVSS: low polyreactivity
- QVQLVESGGGLVQAGGSLRLSCAASGSTFRSNAMGWYRQAPGKERELVAAITYSGGRTYYADSVKGRFTFSRDNAKNTVYLQMNSLIPEDTAVYYCAKVGWSRRYYYWGQGTQVTVSS: high polyreactivity
- QDQLVESGGGIVQEGGSLRLSCAASGLIFRVYAMGWYRQAPGKEWELVATITRGGRTYYADSVKGRFTISRDNAKNTVYLQMNSLKPEDTAVSYCAVLSVRRSYNYWGQGTQVTVSS: high polyreactivity
- QVQLVESGGGLVEAGGSLRLSCAAYGFIFSHNTMGCYRQAPGKERELVAGISWSGGNTYYSDSVKGRFTISRDNAKNTGYLQMNRLKPEDTAVYSFNVRFVTGYRYRYGDDYWGQGTQVTVSS: low polyreactivity
- QVQLVESGGGLVQAGGSLRLSCAASGIIFRRYAMGWYRQAPGKEREFVAAIRYTGGGTYYADSVKGRFTISRDNAKNTVYFQMNSLKPEDTAVYYCAASPWSRGSRWRPFDYWGQGTQVTVSS: high polyreactivity
- QVQLVESGGGLVQAGGSLRLSCAASGSIFFWYTMGWYRQAPGKERELVATISWSDGTTYYADSVKGRFTISRDKAKNTVYLQMNSLIPEDTAVYYCAAESYPSEVSSYVSEYDYWGQGTQVTVSS: low polyreactivity
- QVQLVESGGGLVQAGGSLRLSCAASGRTFNRYAMGWYRQAPGKERELVAVITGSGGAGTYYADSVKGRFTISRDNAKNTVYLQMNSLKPEDTAVYYCNAGGGFYGSTVEHDYWGQGTQVTVSS: low polyreactivity
- QVQVVESGGGLVQAGGSLRLICAASGSTFYSYAMGWYRQAPGKERELVAPISSSGVRTYYADSVKGRFTISRDNAKNTVFLQMISLKPEDTAVYYCNTYLKRYVGRGGPSYYWGQGTQVTVSS: high polyreactivity
- QVQLVESGGGLVQAGGSLRLSCAASGSIFTGYAMGWSRQAPGKEREMLAAISWSGGSTSYADSVKGRFTISRDNAKNTVYLQMNSLKPEDTAVYYCSTDVRQGSGWRYYYWGQGTQVTVSS: high polyreactivity
- QVQLVESGGGLVQAGGSLRLSCAASGSTFTRNAMGWYRQAPGKERELVAAITSSGGSTYYADSVKGRFTISRDNAKNTVYLQMNSLKPEDTAVYYCAAYPHRPRDRELDHWGQGTQVTVSS: low polyreactivity

The reported numbers originate from the nanobody polyreactivity screen of Harvey et al. (2022).
